These data points were gathered from patent US20220387586A1.

assayed-target: T1, biotinylated cynoPD1-ECD-Biotin (cynomolgus, UniProt B0LAJ3 25-170, biotinylated; the site and any Avi or His tag are not stated in the passages shown)
T1 construct: also called cyPD1
T1 sequence (B0LAJ3 entry or part of it limits assumed): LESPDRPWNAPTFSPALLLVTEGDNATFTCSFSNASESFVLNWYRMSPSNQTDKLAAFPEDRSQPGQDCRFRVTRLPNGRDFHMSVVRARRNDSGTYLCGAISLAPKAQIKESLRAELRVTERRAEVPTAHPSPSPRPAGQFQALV
experimental-details: ELISA on coated cynoPD1-ECD-Biotin
We begin with a simple list: items and their reported EC50.
measure: EC50 (µg/mL)

binder	quantity-unit	numeric-value
PD1-0102 (antibody, V domains shown) VH: DVQLQESGPDLVKPSQSLSLTCTVTGYSITSGYSWHWIRQFPGNKLEWMGFIHSSGDTNYNPSLKSRISFTRDTSKNQFFLQLSSLTDEDTATYYCATYRNWYFDVWGAGTTVTVSS VL: DIVMTQSPSSLTVTAGEKVTMRCKSSQSLLNSGTQKNYLTWYQQKPGQPPKLLIYWASTRESGVPNRFTGSGSGTDFTLTISSVQAEDLSVYYCQSDYTFPLTFGGGTKLELK	µg/mL	0.0527
PD1-0103 (antibody, V domains shown, Mouse hybridoma antibody; also called murine anti-PD1 antibody PD1-0103) VH: EVILVESGGGLVKPGGSLKLSCAASGFSFSSYTMSWVRQTPEKRLDWVATISGGGRDIYYPDSVKGRFTISRDNAKNTLYLEMSSLMSEDTALYYCVLLTGRVYFALDSWGQGTSVTVSS VL: KIVLTQSPASLPVSLGQRATISCRASESVDTSDNSFIHWYQQRPGQSPKLLIYRSSTLESGVPARFSGSGSRTDFTLTIDPVEADDVATYYCQQNYDVPWTFGGGTKLEIK	µg/mL	0.0369
PD1-0069 (antibody, V domains shown, Mouse hybridoma antibody) VH: QVQLQQSGPELVRPGVSVKISCKGSGYTFTDYAMHWVKQSHARTLEWIGVISTYSGDTNYNQKFKDKATMTVDKSSSTAYLELARMTSEDSAIYYCARLGITTGFAYWGQGTLVTVSA VL: DIVLTQSPASLAVSLGQRATISCRASKGVSTSSYSFMHWYQQKPRQPPKLLIKYASYLESGVPARFSGSGSGTDFTLNIHPVEEEDAATYYCHHSREFPWTFGGGTKLEIK	µg/mL	0.0227
PD1-0073 (antibody, V domains shown) VH: EVKLVESGGGLVKPGGSLKLSCAASGFTFSNYGMSWIRQTPEKGLEWVATISGGGRDTYYPDSVKGRFTISRDNVKNNLYLQMSSLRSEDTAFYYCASYYYGIDYWGQGTSVTVSS VL: DIVMTQPHKFMSTSVGDRVRITCKASQDVTTAVAWYQQKPGQSPKLLIYWASTRHTGVPDRFTGSGSGTEFTLTISSVQAEDLALYYCQQHYSIPWTFGGGTKLEIK	µg/mL	0.0083
